Test system: Canine cardiac myofibrillar Ca++-dependent Mg++ ATPase
Test: Measurement of myofibrillar Ca++-dependent Mg++ATPase activity (Ca++ sensitivity and maximal activity)
Format: biochemical, canine (dog)
Settings: 20 × 10^-5 molar; pCa=5.47; pH 7.0, 21° C.
Method: 1. Measurement of myofibrillar Ca++-dependent Mg++ATPase activity the effect on myofibrillar Ca++sensitivity and on maximal activity of myofibrillar Ca++-dependent Mg++-ATPase was determined on canine cardiac myofibrils. […] Myofibrils were kept in pellet overnight. Before use, the pellet was suspended in a small amount of buffer, the protein concentration was determined by the method of BRADFORD M., Anal. Biochem., 1976, 72, 248 and adjusted in order to have a concentration between 6 and 7 mg/ml. […]
endpoint: Max ATPase activity (%) (percent change of ATPase activity for pCa=5.47)

Record excerpt, results attached:
1) CC1C(=O)Nc2ccc(C3=NNC(=O)SC3)cc21 (stereo not shown); -6
2) CC1(C)C(=O)Nc2ccc(C3=NNC(=O)SC3)cc21; -9
3) CC(=O)N1C(=O)C(C)(C)c2cc(C3=NNC(=O)SC3C)ccc21 (stereo not shown); -2
4) CSC1(C)C(=O)Nc2ccc(C3=NNC(=O)SC3C)cc21 (stereo not shown); -8

a: CC1SC(=O)NN=C1c1ccc2c(c1)C(C)(C)C(=O)N2 (stereo not shown)
b: CSC1(C)C(=O)Nc2ccc(C3=NNC(=O)SC3)cc21 (stereo not shown)
Request: # argmax over Max ATPase activity (%) (percent change of ATPase activity for pCa=5.47) for candidates a and b // output: label of the selected item
Result: b
(b: -3%, a: -12%)

---

test system: Canine cardiac myofibrillar Ca++-dependent Mg++ ATPase; test: Measurement of myofibrillar Ca++-dependent Mg++ATPase activity (Ca++ sensitivity and maximal activity); type: biochemical, canine (dog); settings: 3 × 10^-5 molar; pCa=5.47; pH 7.0, 21° C.
endpoint: Max ATPase activity (%) (percent change of ATPase activity for pCa=5.47)

Example compounds with recorded Max ATPase activity (%) (percent change of ATPase activity for pCa=5.47):
1. CSC1(SC)C(=O)Nc2ccc(C3=NNC(=O)SC3C)cc21 (stereo not drawn); -4
2. O=C1NN=C(c2ccc3c(c2)C2(CCCS2)C(=O)N3)CS1 (stereo not drawn); -5
3. CC1SC(=O)NN=C1c1ccc2c(c1)C(C)(C)C(=O)N2C(=O)c1ccc(N)cc1 (stereo not drawn); -9
4. CC1SC(=O)NN=C1c1ccc2c(c1)C1(SCCS1)C(=O)N2 (stereo not drawn); -11

P: CC1SC(=O)NN=C1c1ccc2c(c1)CC(C)(C)C(=O)N2 (stereo not drawn)
Q: CSC1C(=O)Nc2ccc(C3=NNC(=O)SC3C)cc21 (stereo not drawn)
R: CC1SC(=O)NN=C1c1ccc2c(c1)C(C)(C)CC(=O)N2 (stereo not drawn)
S: CC1SC(=O)NN=C1c1ccc2c(c1)C1(CCCCC1)C(=O)N2 (stereo not drawn)
Request: Form: Sort by [Max ATPase activity (%) (percent change of ATPase activity for pCa=5.47)] Order [ ascending ] Rank them, then answer with their labels in that order.
Result: S, Q, P, R
(S: -17%, Q: -9%, P: -4%, R: -1%)

---

Reported change in vivo at 0.03 mg/kg is given for each of the following compounds.
tested on: conscious instrumented Dog; test: Cardiotonic activity in the conscious instrumented Dog; type: in vivo, dog (male Beagle); conditions: Canis lupus familiaris, po, 0.03 mg/kg p.o., read-out: dP/dt Max (first derivative of left ventricular pressure), percentage of the maximum ± SEM
Field format: number, assumed %, no unit text.

1. CC1NC(=O)NN=C1c1ccc2c(c1)C(C)(C)C(=O)N2 (centres unmarked) [Example 37]; 85

Request: Name the reported change in vivo at 0.03 mg/kg value associated with the compound CC1SC(=O)NN=C1c1ccc2c(c1)C1(CC1)C(=O)N2 (centres unmarked) [Example 16]
Result: 105

Request: Input CC1SC(=O)NN=C1c1ccc2c(c1)C(C)(C)C(=O)N2 (centres unmarked) [Example 3]
Result: 71

Request: Similarly, CSC1(C)C(=O)Nc2ccc(C3=NNC(=O)SC3C)cc21 (centres unmarked) [Example 5] ?
Result: 45

Request: CC1SC(=O)NN=C1c1ccc2c(c1)C(C)(C)C(=O)N2C(=O)c1ccccc1 (centres unmarked) [Example 22] ?
Result: 56

---

tested on: Canine cardiac myofibrillar Ca++-dependent Mg++ ATPase; test: Measurement of myofibrillar Ca++-dependent Mg++ATPase activity (Ca++ sensitivity and maximal activity); format: biochemical, canine (dog); conditions: 3 × 10^-5 molar; pCa=5.47; pH 7.0, 21° C.
endpoint: Max ATPase activity (%) (percent change of ATPase activity for pCa=5.47)

1) CC1SC(=O)NN=C1c1ccc2c(c1)C1(SCCCS1)C(=O)N2 (stereo not shown); +4 ± 1%
2) CC1SC(=O)NN=C1c1ccc2c(c1)C(C)(C)C(=O)N2C (stereo not shown); +3 ± 3%
3) CC1SC(=O)NN=C1c1ccc2c(c1)C(C)(C)C(=O)N2C(=O)Oc1ccccc1 (stereo not shown); +2 ± 2%

Now consider a different compound.
Request: I would be grateful if you could share the reported Max ATPase activity (%) (percent change of ATPase activity for pCa=5.47) for CC1SC(=O)NN=C1c1ccc2c(c1)C1(CCCC1)C(=O)N2C(=O)c1ccncc1 (stereo not shown) .
Result: +2 ± 5%
